Source listed as ChEMBL document CHEMBL1154096.

- System: MCF7
- EXPERIMENT: Cytotoxicity against human MCF7 cells after 48 hrs by SRB assay
- Format: functional, cell-based
- ASSAY_SETUP: MCF7, 48 h
READOUT: IC50 (µg/mL)
Give your result in µg/mL as a bare value.

- COMPOUND_STRUCTURE: "Cc1c2c(nc3[nH]c(=S)n(-c4ccc(S(=O)(=O)Nc5ncccn5)cc4)c(=N)c13)CCCC2"
  READOUT: "IC50"
  VALUE_UNITS: "µg/mL"
  OBSERVED_MEASUREMENT: 1.48
- COMPOUND_STRUCTURE: "Cc1cc(NS(=O)(=O)c2ccc(-n3c(=S)[nH]c4nc5c(c(C)c4c3=N)CCCC5)cc2)no1"
  READOUT: "IC50"
  VALUE_UNITS: "µg/mL"
  OBSERVED_MEASUREMENT: 2.62

Suppose we examine the compound Cc1c2c(nc3[nH]c(=S)n(-c4ccc(S(=O)(=O)NC(=N)N)cc4)c(=N)c13)CC(C)(C)CC2=O ; what IC50 value has been reported?
5.17

Item: Cc1cc(NS(=O)(=O)c2ccc(N/C=N/c3nc4c(c(C)c3C#N)C(=O)CC(C)(C)C4)cc2)no1
1.9

Quick one: Cc1c2c(nc3[nH]c(=S)n(-c4ccc(S(=O)(=O)NC(=N)N)cc4)c(=N)c13)CCCC2
1.28

// next record Cc1c2c(nc3[nH]c(=S)n(-c4ccc(S(N)(=O)=O)cc4)c(=N)c13)CC(C)(C)CC2=O
4

Next entry: Cc1c2c(nc3[nH]c(=S)n(-c4ccc(S(N)(=O)=O)cc4)c(=N)c13)CCCC2
0.95
